Provenance of the data: the supplement of paper PMC10627819

Tested on: S. aureus Newman;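 also: first quartile when negative (synergy) and third quartile when positive (antagonism)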
Experiment: Bliss interaction score (quartile over a dose matrix) (fitness difference); higher = more antagonism (negative = synergy)
value kind: Bliss interaction score

Recorded results for 3 molecules are shown here.
INSERT INTO assay_data (molecule, assayed_target, value_kind, reported_result) VALUES
  ('CC(=O)OC[C@H]1O[C@@H]([S-])[C@H](OC(C)=O)[C@@H](OC(C)=O)[C@@H]1OC(C)=O.CCP(CC)CC.[Au+] [Auranofin] + CCN(CC)CCOC(=O)c1ccc(N)cc1 [Procaine]', 'S. aureus Newman', 'Bliss interaction score', -0.0631),
  ('CCC[C@@H]1C[C@@H](C(=O)N[C@@H]([C@H]2O[C@H](SC)[C@H](O)[C@@H](O)[C@H]2O)[C@H](C)Cl)N(C)C1 [Clindamycin] + CC[C@H]1OC(=O)[C@H](C)[C@@H](O[C@H]2C[C@@](C)(OC)[C@@H](O)[C@H](C)O2)[C@H](C)[C@@H](O[C@@H]2O[C@H](C)C[C@H](N(C)C)[C@H]2O)[C@](C)(O)C[C@@H](C)C(=O)[C@H](C)[C@@H](O)[C@]1(C)O [Erythromycin]', 'S. aureus Newman', 'Bliss interaction score', -0.0542),
  ('O=C(N[C@H](CO)[C@H](O)c1ccc([N+](=O)[O-])cc1)C(Cl)Cl [Chloramphenicol] + CN(C)c1cc(NC(=O)CNC(C)(C)C)c(O)c2c1C[C@H]1C[C@H]3[C@H](N(C)C)C(O)=C(C(N)=O)C(=O)[C@@]3(O)C(O)=C1C2=O [Tigecycline]', 'S. aureus Newman', 'Bliss interaction score', -0.0583);

Please look at the following molecule next.
In: Given the entry O=C(N[C@H](CO)[C@H](O)c1ccc([N+](=O)[O-])cc1)C(Cl)Cl [Chloramphenicol] + CN[C@@H]1[C@H](O[C@H]2[C@H](O[C@H]3[C@H](O)[C@@H](O)[C@H](N=C(N)N)[C@@H](O)[C@@H]3N=C(N)N)O[C@@H](C)[C@]2(O)C=O)O[C@@H](CO)[C@H](O)[C@H]1O [Streptomycin] , report its measured Bliss interaction score.
Out: -0.0754
